Field: Tmax. Provide a value for each of the molecules that follow.
# experimentNotes: Tmax in overnight-fasted Sprague-Dawley rat at 10, mg/kg, po administered by oral gavage
# Type: ADME, organism-based
# testSettings: in vivo
Please format your answer as a value with the unit trailing.

Memo: CN1CC[C@@](NC(=O)c2ccc3c(C4CCCCC4)c(-c4ccccn4)n(C)c3c2)(C(=O)Nc2ccc(/C=C/C(=O)O)cc2)C1 , reported Tmax: 30 min

Value of Tmax reported for the molecule Cn1c(-c2ccccn2)c(C2CCCCC2)c2ccc(C(=O)NC(C)(C)C(=O)Nc3ccc(/C=C/C(=O)O)cc3)cc21 is 15 min

# Tmax (molecule: Cn1c(-c2ccccn2)c(C2CCCCC2)c2ccc(C(=O)NC3(C(=O)Nc4ccc(/C=C/C(=O)O)cc4)CCC3)cc21 ) is 30 min

Item: Cn1c(-c2ccccn2)c(C2CCCCC2)c2ccc(C(=O)NC(C)(C)C(=O)Nc3ccc(CCC(=O)O)cc3)cc21 | Tmax: 30 min
